# Target: T1, cynomolgus monkey FcRn (cynomolgus monkey, UniProt Q8SPV9 24-297; Q8SPW0 21-119, limits assumed)
# T1 construct: also called cynoFcRn
# Procedure text: SPR, pH 7.4
Readout: pKd
Hey, just a heads up that pKd is the negative log base 10 of the concentration in molar.

Examples with answers:
1) Fc Fragment 3 (other, Human IgG1 Fc fragment; substitutions already in the entry; also called Fc197) DKTHTCPPCPAPELLGGPSVFLFPPKPKDTLYITREPEVTCVVVDVSHEDPEVKFNWYVDGVEVHNAKTKPREEQYNSTYRVVSVLTVLHQDWLNGKEYKCKVSNKALPAPIEKTISKAKGQPREPQVYTLPPSRDELTKNQVSLTCLVKGFYPSDIAVEWESNGQPENNYKTTPPVLDSDGSFFLYSKLTVDKSRWQQGNVFSCSVMHEALKYHYTQKSLSLSPG = 6.02
2) Fc Fragment 2 (other, Human IgG1 Fc fragment; substitutions already in the entry; also called Fc195) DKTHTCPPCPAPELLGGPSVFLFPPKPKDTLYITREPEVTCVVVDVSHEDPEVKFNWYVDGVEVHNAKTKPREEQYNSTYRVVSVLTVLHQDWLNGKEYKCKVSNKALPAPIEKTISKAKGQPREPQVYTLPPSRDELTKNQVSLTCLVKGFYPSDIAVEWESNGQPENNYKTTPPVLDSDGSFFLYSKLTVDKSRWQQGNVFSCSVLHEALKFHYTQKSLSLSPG = 5.81
3) Fc Fragment 14 (other, Human IgG1 Fc fragment; substitutions already in the entry) DKTHTCPPCPAPELLGGPSVFLFPPKPKDTLYITREPEVTCVVVDVSHEDPEVKFNWYVDGVEVHNAKTKPREEQYNSTYRVVSVLTVLHQDWLNGKEYKCKVSNKALPAPIEKTISKAKGQPREPQVYTLPPSRDELTKNQVSLTCLVKGFYPSDIAVEWESNGQPENNYKTTPPVLDSDGSFFLYSKLTVDKSRWQQGNVFSCSVLHEALRFHYTQKSLSLSPG = 5.80
4) Fc Fragment 13 (other, Human IgG1 Fc fragment; substitutions already in the entry) DKTHTCPPCPAPELLGGPSVFLFPPKPKDTLYITREPEVTCVVVDVSHEDPEVKFNWYVDGVEVHNAKTKPREEQYNSTYRVVSVLTVLHQDWLNGKEYKCKVSNKALPAPIEKTISKAKGQPREPQVYTLPPSRDELTKNQVSLTCLVKGFYPSDIAVEWESNGQPENNYKTTPPVLDSDGSFFLYSKLTVDKSRWQQGNVFSCSVMHEALRFHYTQKSLSLSPG = 5.86
5) Fc Fragment 17 (other, Human IgG1 Fc fragment; substitutions already in the entry) DKTHTCPPCPAPELLGGPSVFLFPPKPKDTLYITREPEVTCVVVDVSHEDPEVKFNWYVDGVEVHNAKTKPREEQYNSTYRVVSVLTVDHQDWLNGKEYKCKVSNKALPAPIEKTISKAKGQPREPQVYTLPPSRDELTKNQVSLTCLVKGFYPSDIAVEWESNGQPENNYKTTPPVLDSDGSFFLYSKLTVDKSRWQQGNVFSCSVLHEALKFHYTQKSLSLSPG = 5.66
6) Fc Fragment 12 (other, Human IgG1 Fc fragment; substitutions already in the entry) DKTHTCPPCPAPELLGGPSVFLFPPKPKDTLYITREPEVTCVVVDVSHEDPEVKFNWYVDGVEVHNAKTKPREEQYNSTYRVVSVLTVLHQDWLNGKEYKCKVSNKALPAPIEKTISKAKGQPREPQVYTLPPSRDELTKNQVSLTCLVKGFYPSDIAVEWESNGQPENNYKTTPPVLDSDGSFFLYSKLTVDKSRWQQGNVFSCSVMHEALRYHYTQKSLSLSPG = 6.05

The binder Fc Fragment 16 (other, Human IgG1 Fc fragment; substitutions already in the entry) DKTHTCPPCPAPELLGGPSVFLFPPKPKDTLYITREPEVTCVVVDVSHEDPEVKFNWYVDGVEVHNAKTKPREEQYNSTYRVVSVLTVDHQDWLNGKEYKCKVSNKALPAPIEKTISKAKGQPREPQVYTLPPSRDELTKNQVSLTCLVKGFYPSDIAVEWESNGQPENNYKTTPPVLDSDGSFFLYSKLTVDKSRWQQGNVFSCSVMHEALKYHYTQKSLSLSPG showed pKd equal to 5.77
